Kindly supply the reported tissue uptake at 1 h values for the records listed here.
- experimentDescription: Ex vivo biodistribution in PC-3 tumor-bearing mice
- studyConditions: male, NRG, mouse, bone, iv, total radioactivity, Biodistribution Bone Mean, 1 h post-injection, mice bearing PC-3 tumor xenografts, n = 4
Numbers only, in %ID/g.

# compound, readoutLabel, dataValue
data = [
    ("CC(C)C[C@H](NC(=O)[C@H](Cc1c[nH]cn1)NC(=O)CNC(=O)[C@@H](NC(=O)[C@H](C)NC(=O)[C@H](Cc1c[nH]c2ccccc12)NC(=O)[C@H](CCC(N)=O)NC(=O)[C@@H](Cc1ccccc1)NC(=O)CN1CCC(NC(=O)CN2CCN(CC(=O)O)CCN(CC(=O)O)CCN(CC(=O)O)CC2)CC1)C(C)C)C(=O)N1CSC[C@H]1C(N)=O [^68Ga-LW01025, metal not drawn]", "tissue uptake at 1 h", 0.24),
    ("CC(C)C[C@H](NC(=O)[C@H](Cc1c[nH]cn1)NC(=O)CNC(=O)[C@@H](NC(=O)[C@H](C)NC(=O)[C@H](Cc1c[nH]c2ccccc12)NC(=O)[C@H](CCC(N)=O)NC(=O)[C@@H](Cc1ccc2ccccc2c1)NC(=O)CN1CCC(NC(=O)CN2CCN(CC(=O)O)CCN(CC(=O)O)CCN(CC(=O)O)CC2)CC1)C(C)C)C(=O)N1CSC[C@H]1C(N)=O [^68Ga-LW01029, metal not drawn]", "tissue uptake at 1 h", 0.19),
]

Shifting focus to the compound that follows.
Input line: Tell me measured tissue uptake at 1 h for CC(C)C[C@@H](CN1CSC[C@H]1C(N)=O)NC(=O)[C@H](Cc1cnc[nH]1)NC(=O)CN(C)C(=O)[C@@H](NC(=O)[C@H](C)NC(=O)[C@H](Cc1c[nH]c2ccccc12)NC(=O)[C@H](CCC(N)=O)NC(=O)[C@@H](Cc1ccccc1)NC(=O)CN1CCC(NC(=O)CN2CCN(CC(=O)O)CCN(CC(=O)O)CCN(CC(=O)O)CC2)CC1)C(C)C [^68Ga-LW01090, metal not drawn] please.
Output line: 0.1

Provenance of the data: patent US12246076B2
